Please respond with reported folding stability dG for every item in the list.
B1: EEHEE_rd4_0647 (parent)
chain: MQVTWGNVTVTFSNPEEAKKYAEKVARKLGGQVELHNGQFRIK

Variants of: B1
Experiment: folding stability dG (cDNA display proteolysis); higher = more stable
Conditions: PBS, room temperature
Numbers only, in kcal/mol.

K24E
2.83
F40G
0.325
V25W
2.69
F12V
0.887
P15L
2.77

// for each variant below, give its folding stability dG
1. E23T
2. A18W
3. K24G
4. W5R
5. E17H
6. L35V

1: 2.37; 2: 1.08; 3: 2.37; 4: 0.966; 5: 2.7; 6: 2.83

// for each variant below, give its folding stability dG
1. V10Q
2. L35D
3. A26T
4. I42F

1.85
1.84
0.93
1.1
